# Test system: Axin2 accumulation in SW480 cells
# test_description: Axin2 384 immunofluorescence assay
# Format: cell-based
# protocol_conditions: Homo sapiens; SW480 cells, 24 hours; read-out: Axin2 384 IF EC50
measured_endpoint: EC50

For orientation, consider the following solved cases.
{"columns": ["smiles_notation", "reported_value"],
 "data": [
  ["O=C(CCc1nc2ccccc2c(=O)[nH]1)N[C@H]1CC[C@H](n2c(=O)[nH]c3cc(Cl)ccc32)CC1", "0.0597 µM"],
  ["O=C(CCSc1nc2ccccc2c(=O)[nH]1)N1CCC(c2nnc(-c3ccccc3)o2)CC1", "2.68 µM"],
  ["N#Cc1ccc2c(c1)[nH]c(=O)n2C1CCN(C(=O)CCCc2nc3ccccc3c(=O)[nH]2)CC1", "0.239 µM"],
  ["O=C(CCSc1nc2ccccc2c(=O)[nH]1)N[C@H]1CC[C@H](c2nnc(-c3ccncc3)o2)CC1", "0.000666 µM"],
  ["O=C(CCCc1nc2ccccc2c(=O)[nH]1)N1CCC(c2nnc(COc3ccc(Cl)cc3)o2)CC1", "6.39 µM"]
]}

[Q] Find the recorded EC50 belonging to `COc1cccc(-c2nnc(C3CCN(C(=O)CCCc4nc5ccccc5c(=O)[nH]4)CC3)o2)c1` and report it.
[A] 0.257 µM

[Q] Find the recorded EC50 belonging to `O=C(CCc1nc2ccccc2c(=O)[nH]1)N[C@H]1CC[C@H](c2nnc(-c3ccccc3Cl)o2)CC1` and report it.
[A] 1.75 µM

[Q] Find the recorded EC50 belonging to `O=C(CCSc1nc2ccccc2c(=O)[nH]1)N[C@H]1CC[C@H](c2nnc(-c3ccccc3)o2)CC1` and report it.
[A] 0.00388 µM
